- Tested on: SF-295 CNS
- experimental protocol: NCI tumour cell line growth inhibition, 48 h
measured attribute: GI50

Some solved cases for reference:
Challenge: Data request, read-out GI50, for CCc1ccc(NC(=O)Nc2c[nH]c3ccccc23)cc1
Response given: 23.8 µM

Challenge: Data request, read-out GI50, for COc1cccc(C2=C(c3cn(C)c4ccccc34)C(=O)NC2=O)c1
Response given: 11 µM

Next:
Challenge: Data request, read-out GI50, for CC1(C)CCC2(C(=O)OC3OC(CO)C(O)C(O)C3O)CC[C@]3(C)C(=CCC4C5(C)CC[C@H](OC6OC(C(=O)O)C(O)C(O)C6O)C(C)(C)C5CCC43C)C2C1 (stereo partly drawn)
Response given: 2.56 µM
